Molecular target: T1, Chymase human recombinant expressed in Pichia pastoris (human, UniProt P23946 22-247)
T1 chain: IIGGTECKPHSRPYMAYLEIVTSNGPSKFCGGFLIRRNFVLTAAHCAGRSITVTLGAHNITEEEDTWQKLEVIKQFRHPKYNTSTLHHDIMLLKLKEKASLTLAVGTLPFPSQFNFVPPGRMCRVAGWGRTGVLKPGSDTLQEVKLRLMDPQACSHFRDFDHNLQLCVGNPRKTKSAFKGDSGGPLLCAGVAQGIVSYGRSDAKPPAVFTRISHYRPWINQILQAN
Experiment: substrate peptide degradation inhibition
pIC50: −log10 of the molar value.
Experimental endpoint: pIC50

# Binder, pIC50
records = [
    ("active MMP-9-binding peptide M91005 (designed binder) GSGMKETAAAKFERQHMDSPDLGTDDDDKAMADIGSANSDPQFGLFSKYRTPNCRKRGGPSCQMSYNPVCGSDMSTYANECTLCMKIREGGHNIKIIRNGPCGASAAA", "< 6.00"),
]

In the following, a different binder is considered.
The recorded pIC50 for entry active MMP-9-binding peptide M91012 (designed binder) GSGMKETAAAKFERQHMDSPDLGTDDDDKAMADIGSANSDPQFGLFSKYRTPNCRVRGGPSCQMSFNPVCGSDMSTYANECTLCMKIREGGHNIKIIRNGPCGASAAA equals < 6.00
